- Target or test system: UniProtKB P0DTD1
- Condition description: 20.0 µM
Can you tell me inhibition for the items I'm about to list?

**Query** Find the recorded inhibition belonging to O=C(O)C12CC(CNCc3ccc4c(c3)OCC4)(C1)OC2c1ccccc1 (stereo not given) and report it.
**Result** -3.12%

**Query** What do you have for CN(C)C(=O)C[C@@H]1CN(C(=O)c2cnn3c2CCC3)c2ccc(Cl)cc21 (stereo in doubt) ?
**Result** -17.5%

**Query** Same read-out for O=C(COc1ccccc1F)Nc1ncnc2[nH]cnc12 ?
**Result** -6.54%

**Query** Try CC(Cl)C(=O)N1CCC(C(=O)N2CCCCC2)CC1 (stereo not given) next.
**Result** -11.9%

**Query** How about COc1ccc2nc(NC(=O)Nc3cn(CC(C)C)c(=O)c4ccccc34)sc2c1 ?
**Result** 21.3%

**Query** Follow-up item: N#Cc1cncc(NC(=O)Cc2c[nH]c3ncccc23)c1
**Result** -0.384%

**Query** Now consider CCOC(=O)c1nc(S(C)(=O)=O)ncc1Cl .
**Result** 96.9%

**Query** And what about the molecule CS(=O)(=O)NCCc1cccc(O)c1 ?
**Result** -1.8%

**Query** O=C(NCc1noc2ccccc12)c1ccccc1OCC1CC1 ?
**Result** 5.31%

**Query** Please do the same for C=CC(=O)N(c1ccc(S(F)(F)(F)(F)F)cc1)C(C(=O)Nc1ccc(OC)cc1C)c1cccnc1 (stereo not given) as well.
**Result** 5.52%

**Query** Repeat with O=C(CCl)N1CCN(Cc2cccs2)CC1
**Result** 94.5%

**Query** Cc1ccc(NC(=O)Nc2cn(CC(C)C)c(=O)c3ccccc23)c(Br)c1 , same question.
**Result** 8.16%

**Query** Continue with Cc1cccc(NC(=O)CN2C(=O)C(=O)c3ccccc32)c1
**Result** -4.74%

**Query** Another molecule: Cc1cc(NC(=O)Cc2cncnc2)cc(OC2CC(=O)N2)c1 (stereo not given)
**Result** 49.3%

**Query** And NS(=O)(=O)c1ccc(N2CCC(CN3CCCCC3)CC2)cc1 ?
**Result** -23.1%

**Query** Then CC(CCc1ccco1)NC(=O)Nc1cn(C)c(=O)c2ccccc12 (stereo not given) ?
**Result** 32.6%

**Query** Now the molecule Cc1ncccc1NC(=O)Cc1cccc(Cl)c1
**Result** -4.59%

**Query** Now try Cn1cc(NC(=O)Nc2cccc(C(F)(F)F)c2)c2ccccc2c1=O .
**Result** -2.91%

**Query** Follow-up entry: O=C1Nc2c(Br)cccc2C1=O
**Result** -4.89%

**Query** Can you check CC1(C)CN(C(=O)c2ccc(-c3cccc4nc(NC(=O)C5CC5)nn34)cc2)C1 next?
**Result** -1.13%

**Query** Would you mind doing O=C(Nc1cccc(C(F)(F)F)c1)Nc1ccccc1Sc1ncc([N+](=O)[O-])s1 as well?
**Result** 55.9%

**Query** Do the same for C=CC(=O)N(c1ccc(S(F)(F)(F)(F)F)cc1)C(C(=O)NC(C)(C)C)c1cccnc1 (stereo not given) please
**Result** 11.1%

**Query** Also COc1cc(OC)cc(Oc2ccc(CNC(=O)Cn3nnc4ccccc43)cc2)c1 ?
**Result** 4.58%

**Query** Same question for Cc1ccncc1NC(=O)Cc1cccc(S(N)(=O)=O)c1 please.
**Result** 11.1%

**Query** // query: CCO[C@@H]1C[C@H]1C(=O)Nc1cnccc1C (stereo in doubt)
**Result** -4.13%

**Query** Next entry: C=CC(=O)N(c1ccc2ncsc2c1)C(C(=O)Nc1ccc(Br)cc1)c1cccnc1 (stereo not given)
**Result** 17.4%

**Query** Another molecule: Cc1ccc(S(=O)(=O)Nc2c(-c3cccnc3)nc3ccccn23)c(C)c1
**Result** 2.5%

**Query** Thanks! And Nc1cc(C(F)(F)F)c(-c2nc(N3CCOCC3)nc(N3CCOCC3)n2)cn1 ?
**Result** 5.19%

**Query** Param item: CC(C(=O)Nc1cnccc1C)=C1CC1
**Result** 2.11%

**Query** Also, O=C(Cc1ccc(Cl)s1)Nc1cccnc1 please.
**Result** 0.922%

**Query** // same read-out, input: O=C(Cc1c[nH]c2ncccc12)NCc1ccc(Cl)cc1
**Result** 2.99%

**Query** Same again, this time with COc1ccc(-c2cccc(S(=O)(=O)N3CCN(C(C)=O)CC3)c2)cc1
**Result** -3.55%

**Query** Field entry: O=C1CC(Oc2cccc(C(=O)NCc3cncnc3)c2)N1 (stereo not given)
**Result** 21.6%

**Query** Also CC(C)CCC(=O)C[C@H]1c2ccccc2C(=O)N1c1ccc2ccc(Cl)nc2n1 (stereo in doubt) , if possible.
**Result** 4.26%

**Query** Continue with N#Cc1ccccc1S(=O)(=O)N1CCN(C(=O)c2cc(=O)[nH]c3ccc(F)cc23)CC1
**Result** 14.7%

**Query** Try this molecule too: O=C(NCCNc1ccncc1)c1cccc(S(=O)(=O)Nc2ccccc2-c2ccccc2)c1
**Result** -20.4%

**Query** Next: CO[C@H](C)C(=O)N(C)c1cnccc1C (stereo in doubt)
**Result** 3.08%

**Query** Further, for CS(=O)(=O)Nc1cccc(C(=O)OCC(=O)Nc2cccc(N3CCCC3=O)c2)c1 ?
**Result** 5.16%

**Query** Now this one: O=C1Nc2ccc(Br)cc2C1=O
**Result** -2.12%

**Query** What about this molecule? Cc1noc(C)c1COc1ccccc1C(=O)NC(C)c1nnc2ncccn12 (stereo not given)
**Result** 2.22%

**Query** Then O=C(Cc1cccnc1)Nc1cccc(OC2CC(=O)N2)c1 (stereo not given) ?
**Result** 39.6%

**Query** What do you get for Cc1ccncc1CC(=O)Nc1cccc(Cl)c1 ?
**Result** 42.2%

**Query** Now consider NC(=O)C1CCN(c2nnc(C3CCC(=O)N3)n2CCc2cc(F)cc(F)c2)CC1 (stereo not given) .
**Result** 1.27%

**Query** Subsequent entry: C=CC(=O)N(c1ccc(C(C)C)nc1)C(C(=O)NC(C)(C)C)c1cccnc1 (stereo not given)
**Result** 11.7%

**Query** Can you handle C=CC(=O)N(c1ccc(C(C)(C)C)cc1)C(C(=O)NC)c1cccnc1 (stereo not given) next?
**Result** 42.1%

* * *

Assignment: determine reported inhibition for the given compounds.
- Target or test system: SARS-CoV-2 Main Protease (SARS-CoV-2)
- Condition description: 50.0 µM
Field format: number, assumed %, no unit text.

**Query** Returns the measured inhibition for the input compound. Input: COC(=O)C(c1ccccc1Cl)N1CCc2sccc2C1 (stereo not drawn)
**Result** 0

**Query** Also check O=C(Nc1ccccc1)Nc1cnc2ccc([N+](=O)[O-])cc2n1
**Result** 0.772

**Query** Now try C=CC(=O)N(c1ccc(C(C)(C)C)cc1)C(C(=O)N[C@H]1CC[C@@H](C(=O)OC)C1)c1cccnc1 (stereo in doubt) .
**Result** 6.96

**Query** Likewise for O=C(CCl)N1CCN(C(c2ccccc2)C2CCCCC2)CC1 (stereo not drawn) ?
**Result** 95.6

**Query** And for C=CC(=O)N(c1ccc(C(F)(F)F)cc1)C(C(=O)NCCc1cccc(F)c1)c1cncc(C)c1 (stereo not drawn) ?
**Result** 91.6

**Query** Okay, and O=C(Cc1ccc2[nH]c(=O)[nH]c2c1)NC1(CNC(=O)c2cnc[nH]2)CC1 ?
**Result** 76.6

**Query** One more compound: O=C(Nc1cnccc1CO)[C@@H]1COc2ccc(Cl)cc21 (stereo in doubt)
**Result** 58.6

**Query** # iterate: Cc1ccncc1NC(=O)C(C)(C)c1cccc(Cl)c1
**Result** 66.9

**Query** Then O=C(CCl)NC(CO)c1cccc(Cl)c1 (stereo not drawn) ?
**Result** 45.3

**Query** Also, Cc1c(C(=O)CCl)c2ccccn2c1C(=O)c1ccc(F)cc1 please.
**Result** 94.7

**Query** Would you kindly repeat that for N#C/C(C(=O)Nc1ccc(F)cc1)=C(/O)c1ccc(Cl)cc1 ?
**Result** 100

**Query** Also O=C(Nc1cccc(C(=O)N2CCSCC2)c1)C(F)Cl (stereo not drawn) , if possible.
**Result** 0

**Query** Same for Cc1ccncc1NC(=O)[C@@H]1C[C@H]1CF (stereo in doubt)
**Result** 3.35

**Query** What do you get for O=C(CC(=O)N1CCOCC1)Nc1ccccc1 ?
**Result** 0

**Query** Do the same for CCOC(=O)c1nc(S(C)(=O)=O)ncc1Cl please
**Result** 100

**Query** Try CN(CC1COc2ccccc2O1)C(=O)c1cc(=O)[nH]c2ccc(F)cc12 (stereo not drawn) next.
**Result** 0

**Query** Okay, and CCC(NC(=O)NCc1cnccn1)c1ccccc1OCC(=O)N1CCCC1 (stereo not drawn) ?
**Result** 9.2

**Query** For Cc1ccncc1NC(=O)CN1CCOCC1 then?
**Result** 5.7

**Query** What would you report for Cc1ccc(C)c(S(=O)(=O)N2CCN(C(=O)CCl)CC2)c1 ?
**Result** 96.3

**Query** Same for CC(=O)N1CCN(Cc2ccsc2)CC1
**Result** 97.4

**Query** Item: NC1=Nc2nc3ccccc3n2C(c2ccc(-c3nc4ccccc4s3)o2)N1 (stereo not drawn)
**Result** 38.8

**Query** Another compound to check: NC(=O)CCN(C(=O)CCl)C1CCS(=O)(=O)C1 (stereo not drawn)
**Result** 34.1

**Query** What would you report for Cc1ccncc1NC(=O)Cc1ccc2[nH]ccc2c1 ?
**Result** 0
